Ref: ChEMBL document CHEMBL3739348

# SYSTEM TESTED: Mitogen-activated protein kinase 3 (Homo sapiens) (UniProt P27361)
# Sequence (P27361 whole entry): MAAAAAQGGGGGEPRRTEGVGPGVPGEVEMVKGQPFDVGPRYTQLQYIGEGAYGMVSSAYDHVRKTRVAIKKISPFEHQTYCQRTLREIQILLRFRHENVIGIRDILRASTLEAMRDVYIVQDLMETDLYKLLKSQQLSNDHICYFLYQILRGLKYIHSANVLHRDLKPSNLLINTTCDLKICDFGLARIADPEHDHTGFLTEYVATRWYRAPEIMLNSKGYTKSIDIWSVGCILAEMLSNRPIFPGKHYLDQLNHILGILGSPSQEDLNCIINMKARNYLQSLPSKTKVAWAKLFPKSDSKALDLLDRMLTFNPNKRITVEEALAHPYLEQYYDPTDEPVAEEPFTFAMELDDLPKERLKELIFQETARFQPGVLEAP
# TEST NAME: Inhibition of Erk1 (unknown origin) at 30 uM by microfluidic assay relative to control
MEASURED ENDPOINT: inhibition (%)

Example cases with answers are listed next.
CC(=O)c1nn(-c2ccccc2)cc1C(=O)c1c(C)[nH]c(-c2ccccc2)c1-c1ccccc1
3
CCOC(=O)c1nn(-c2ccccc2)cc1C(=O)c1c(C)[nH]c(-c2ccccc2)c1-c1ccccc1
7

[P] Cc1[nH]c(-c2ccccc2)c(-c2ccccc2)c1C(=O)c1cn(-c2ccccc2)nc1-c1ccccc1
[Q] Cc1[nH]c(-c2ccccc2)c(-c2ccccc2)c1C(=O)c1coc2c1cc(O)c1ccccc12
Prompt line: Identify the entry with the larger inhibition. Options: P and Q Write down the label attached to your selection.
Response line: P
